For each entry below, report its Binding affinity (K a) value.
experimentalTarget: MARK4 (Homo sapiens)
Construct: inferred from Ni-NTA purification; made in house
Sequence (Q96L34 59-368): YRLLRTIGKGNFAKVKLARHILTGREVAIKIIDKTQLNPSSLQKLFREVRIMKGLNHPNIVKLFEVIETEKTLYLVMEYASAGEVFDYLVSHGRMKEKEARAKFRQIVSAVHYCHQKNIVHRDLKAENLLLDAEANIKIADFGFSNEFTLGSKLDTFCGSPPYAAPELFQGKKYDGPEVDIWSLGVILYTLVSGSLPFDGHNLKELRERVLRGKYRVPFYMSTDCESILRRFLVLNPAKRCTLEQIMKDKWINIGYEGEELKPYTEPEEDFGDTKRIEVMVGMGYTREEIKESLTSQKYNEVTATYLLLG
assayRemarks: Fluorescence quenching binding study (modified Stern-Volmer)
experimentalContext: excitation 280 nm, 25 °C
Give bare numbers, in M⁻¹.

Here are 3 molecules together with their reported answers.
structure	Binding affinity (K a) (M⁻¹)
O=C(O)c1cc(O)c(O)c(O)c1	7.6
COc1ccc([C@@H]2CC(=O)c3c(O)cc(O[C@@H]4O[C@H](CO[C@@H]5O[C@@H](C)[C@H](O)[C@@H](O)[C@H]5O)[C@@H](O)[C@H](O)[C@H]4O)cc3O2)cc1O	112
C[C@@H]1O[C@@H](OC[C@H]2O[C@@H](Oc3c(-c4ccc(O)c(O)c4)oc4cc(O)cc(O)c4c3=O)[C@H](O)[C@@H](O)[C@@H]2O)[C@H](O)[C@H](O)[C@H]1O	287000

Lab note: each molecule below needs its Binding affinity (K a) filled in.
1. COc1cc(/C=C/C(=O)O)ccc1O
2. COc1cc(C=O)ccc1O

OUTPUT:
1: 13000; 2: 16500

Attribution: paper PMC5573368
